settings: human gut metagenome, 24 h, 2 µM; note: call rule not given here
property_measured: Bacterial Biotransformation

Past entries and their recorded results:
[[record]]
molecule = "Cc1ccccc1N1C(=O)c2cc(S(N)(=O)=O)c(Cl)cc2NC1C (centres undefined)"
result = "Compound NOT metabolized"

[[record]]
molecule = "COc1c(C)c2c(c(O)c1C/C=C(\\C)CCC(=O)OCCN1CCOCC1)C(=O)OC2 [MYCOPHENOLATE MOFETIL]"
result = "Compound metabolized"

[[record]]
molecule = "Cc1nc2n(c(=O)c1CCN1CCC(c3noc4cc(F)ccc34)CC1)CCCC2"
result = "Compound NOT metabolized"

[[record]]
molecule = "CN1CC(=O)N2[C@H](c3ccc4c(c3)OCO4)c3[nH]c4ccccc4c3C[C@@H]2C1=O"
result = "Compound metabolized"


Look at each molecule and report its Bacterial Biotransformation.
1. CN1C(=O)CCS(=O)(=O)C1c1ccc(Cl)cc1 (centres undefined)
2. CNC(=C[N+](=O)[O-])NCCSCc1ccc(CN(C)C)o1
3. CO[C@]12C[C@@H](COC(=O)c3cncc(Br)c3)CN(C)[C@@H]1Cc1cn(C)c3cccc2c13
4. c1ccc([C@H]2CN3CCSC3=N2)cc1

1. Compound NOT metabolized
2. Compound NOT metabolized
3. Compound NOT metabolized
4. Compound metabolized

Reported Bacterial Biotransformation, molecule O=C1[C@H](CC[C@H](O)c2ccc(F)cc2)[C@@H](c2ccc(O)cc2)N1c1ccc(F)cc1 : ____ Compound metabolized
